# target_entity: Amyloid-beta precursor protein (Homo sapiens) (UniProt P05067)
# Sequence (P05067 whole entry): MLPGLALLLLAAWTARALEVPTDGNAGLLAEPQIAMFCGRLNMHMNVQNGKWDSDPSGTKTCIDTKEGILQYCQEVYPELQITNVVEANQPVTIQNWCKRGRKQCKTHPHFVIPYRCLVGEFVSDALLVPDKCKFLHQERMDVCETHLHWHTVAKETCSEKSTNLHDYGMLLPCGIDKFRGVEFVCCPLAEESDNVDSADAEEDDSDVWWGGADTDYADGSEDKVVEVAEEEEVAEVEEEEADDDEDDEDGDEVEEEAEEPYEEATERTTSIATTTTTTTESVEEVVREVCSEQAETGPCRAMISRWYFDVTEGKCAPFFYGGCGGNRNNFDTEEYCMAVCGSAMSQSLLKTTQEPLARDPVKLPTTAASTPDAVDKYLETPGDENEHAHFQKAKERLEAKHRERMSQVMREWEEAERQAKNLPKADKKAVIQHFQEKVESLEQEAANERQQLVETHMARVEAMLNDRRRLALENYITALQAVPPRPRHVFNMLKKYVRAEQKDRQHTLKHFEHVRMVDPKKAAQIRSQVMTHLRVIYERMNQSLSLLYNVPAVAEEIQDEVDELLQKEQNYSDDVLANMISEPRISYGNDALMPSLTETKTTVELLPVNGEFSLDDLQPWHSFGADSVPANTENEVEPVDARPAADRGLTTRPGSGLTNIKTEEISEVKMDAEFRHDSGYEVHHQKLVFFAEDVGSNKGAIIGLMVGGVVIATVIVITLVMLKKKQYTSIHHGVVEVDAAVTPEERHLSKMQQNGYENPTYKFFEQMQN
# assay_remarks: Inhibition of amyloid beta (1 to 42) (unknown origin) self-induced aggregation at 20 uM after 46 to 48 hrs by thioflavin-T based fluorometric assay
As shown below, each of these compounds has a reported inhibition value.
quantity_measured: inhibition (%)

Oc1ccccc1/C=N/c1ccccc1: 44.9
Oc1ccccc1/N=C/c1cccc(F)c1: 67.6
Oc1ccc(/C=C/c2cc(O)cc(O)c2)cc1: 64.2
Oc1ccccc1/C=N/c1ccccc1O: 67.2
Oc1ccccc1/N=C/c1ccc(F)cc1: 67.8
Oc1ccc(Cl)cc1/C=N/c1ccccc1: 33.8
Oc1cccc(/C=N/c2ccccc2O)c1: 64.3
